These measurements were taken from ChEMBL document CHEMBL1764999.

study.target: Solute carrier family 15 member 1 (Homo sapiens)
Sequence (P46059 whole entry): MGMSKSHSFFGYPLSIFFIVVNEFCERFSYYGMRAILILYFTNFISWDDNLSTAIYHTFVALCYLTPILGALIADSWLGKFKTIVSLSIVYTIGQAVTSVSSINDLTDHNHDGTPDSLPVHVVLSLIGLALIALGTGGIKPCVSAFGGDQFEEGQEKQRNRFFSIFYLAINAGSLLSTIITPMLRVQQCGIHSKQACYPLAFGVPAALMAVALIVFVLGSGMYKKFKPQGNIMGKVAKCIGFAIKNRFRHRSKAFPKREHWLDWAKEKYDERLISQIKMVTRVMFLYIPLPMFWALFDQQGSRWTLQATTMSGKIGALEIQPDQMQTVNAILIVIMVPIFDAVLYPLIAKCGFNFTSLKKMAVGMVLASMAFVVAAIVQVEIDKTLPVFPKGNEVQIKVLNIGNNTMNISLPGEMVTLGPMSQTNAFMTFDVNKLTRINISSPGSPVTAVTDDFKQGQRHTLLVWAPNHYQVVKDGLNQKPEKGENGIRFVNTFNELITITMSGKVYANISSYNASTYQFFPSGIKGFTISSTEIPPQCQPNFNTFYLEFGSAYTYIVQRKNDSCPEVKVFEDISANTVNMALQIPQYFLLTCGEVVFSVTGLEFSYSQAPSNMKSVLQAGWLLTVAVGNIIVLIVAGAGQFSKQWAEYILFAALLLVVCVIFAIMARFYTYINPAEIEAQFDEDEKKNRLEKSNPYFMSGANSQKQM
assay.info: Inhibition of human PEPT1 expressed in Xenopus laevis oocytes assessed as inhibition of glycylsarcosine-induced transport-associated current at -60 mV membrane potential by two-electrode voltage clamp method
Peptide text beside a SMILES is read from it.
# maps each entry to its IC50
attribute.measured: IC50 (µM)

[
  {
    "compound": "NC(=O)[C@H](CCCN=C(N)N)NC(=O)[C@H](Cc1c[nH]c2ccccc12)NC(=O)[C@@H](N)CCCN=C(N)N (H-Arg-Trp-Arg-NH2)",
    "attribute.measured": "IC50",
    "recorded.number": 2700
  },
  {
    "compound": "CC(C)(C)c1cc(C(C)(C)C)c2[nH]c(C(C)(C)C)c(C[C@H](N)C(=O)N[C@@H](CCCNC(=N)N)C(N)=O)c2c1",
    "attribute.measured": "IC50",
    "recorded.number": 600
  }
]

---

# maps each entry to its Activity
study.target: UniProt P46059
assay.info: Inhibition of human PEPT1 expressed in Xenopus laevis oocytes assessed as effect on glycylsarcosine-induced transport-associated flux rate current at 0.25 to 1 mM at -60 mV membrane potential by two-electrode voltage clamp method
Type: cell-based
setup.conditions: Oocyte
Square brackets hold non-standard residues; d marks the D form. Peptide text beside a SMILES is read from it. * marks the point of attachment. Bip = N[C@@H](Cc1ccc(-c2ccccc2)cc1)C(=O)O; NHBn = c1ccc(CN*)cc1
attribute.measured: Activity

[
  {
    "compound": "CC(C)(C)c1cc(C(C)(C)C)c2[nH]c(C(C)(C)C)c(C[C@H](N)C(=O)N[C@@H](CCCNC(=N)N)C(N)=O)c2c1",
    "result": "34.8 pmol/(s.cm2)"
  },
  {
    "compound": "COC(=O)[C@H](CCCN=C(N)N)NC(=O)[C@@H](N)Cc1ccc(-c2ccccc2)cc1 (H-[Bip]-Arg-OMe)",
    "result": "57.2 pmol/(s.cm2)"
  },
  {
    "compound": "NC(=O)[C@H](CCCN=C(N)N)NC(=O)[C@H](Cc1c[nH]c2ccccc12)NC(=O)[C@@H](N)CCCN=C(N)N (H-Arg-Trp-Arg-NH2)",
    "result": "61.8 pmol/(s.cm2)"
  },
  {
    "compound": "N=C(N)NCCC[C@H](NC(=O)[C@H](Cc1ccc(-c2ccccc2)cc1)NC(=O)[C@@H](N)CCCNC(=N)N)C(N)=O (H-Arg-[Bip]-Arg-NH2)",
    "result": "56.7 pmol/(s.cm2)"
  },
  {
    "compound": "N=C(N)NCCC[C@H](NC(=O)[C@H](Cc1c[nH]c2ccccc12)NC(=O)[C@@H](N)CCCNC(=N)N)C(=O)NCc1ccccc1 (H-Arg-Trp-Arg-NHBn)",
    "result": "3.8 pmol/(s.cm2)"
  }
]
